These entries and their values trace back to the supplement of paper PMC11061612.

# Tested on: NCI-H3122 (Lung Adenocarcinoma)
# Experimental Protocol: combination Emax (second highest fraction inhibited in the dose matrix, 72 h); higher = more inhibition; extreme values may be limits of the assay
# Lookup of reported combination Emax keyed by entry
Would you mind answering with just the numeric figure?

Consider the reported combination Emax for these molecules:
Recorded combination Emax for CC1(C)CCC(CN2CCN(c3ccc(C(=O)NS(=O)(=O)c4ccc(NCC5CCOCC5)c([N+](=O)[O-])c4)c(Oc4cnc5[nH]ccc5c4)c3)CC2)=C(c2ccc(Cl)cc2)C1 [Venetoclax] + COc1cc(Nc2ncc3c(n2)-c2ccc(Cl)cc2C(c2c(F)cccc2OC)=NC3)ccc1C(=O)O [Alisertib] (first compound max 1 µM, 7x7, partner max 10 µM) on NCI-H3122 (Lung Adenocarcinoma) was 0.336

combination Emax on NCI-H3122 (Lung Adenocarcinoma) for O=C(c1cc(Cc2n[nH]c(=O)c3ccccc23)ccc1F)N1CCN(C(=O)C2CC2)CC1 [Olaparib] + COc1nnc2ccc(N3CCC(c4ccc(OCCN5CCN(C)C(=O)[C@H]5C)cc4)CC3)nn12 [AZD5153] (first compound max 10 µM, 7x7, partner max 1 µM) is 0.596

GET /values?item= CS(=O)(=O)CCNCc1ccc(-c2ccc3ncnc(Nc4ccc(OCc5cccc(F)c5)c(Cl)c4)c3c2)o1 [Lapatinib] + Cn1cnc2c(F)c(Nc3ccc(Br)cc3Cl)c(C(=O)NOCCO)cc21 [Selumetinib] (first compound max 10 µM, 7x7, partner max 10 µM) &system= NCI-H3122 (Lung Adenocarcinoma) returns combination Emax: 0.611

Continuing:
# combination Emax measured on NCI-H3122 (Lung Adenocarcinoma) for item CC1(C)CCC(CN2CCN(c3ccc(C(=O)NS(=O)(=O)c4ccc(NCC5CCOCC5)c([N+](=O)[O-])c4)c(Oc4cnc5[nH]ccc5c4)c3)CC2)=C(c2ccc(Cl)cc2)C1 [Venetoclax] + CS(=O)(=O)CCNCc1ccc(-c2ccc3ncnc(Nc4ccc(OCc5cccc(F)c5)c(Cl)c4)c3c2)o1 [Lapatinib] (first compound max 1 µM, 7x7, partner max 10 µM) = 0.232

Short answer on NCI-H3122 (Lung Adenocarcinoma) for NC1(C(=O)N[C@@H](CCO)c2ccc(Cl)cc2)CCN(c2ncnc3[nH]ccc23)CC1 [Capivasertib] + Cn1cnc2c(F)c(Nc3ccc(Br)cc3Cl)c(C(=O)NOCCO)cc21 [Selumetinib] (first compound max 10 µM, 7x7, partner max 10 µM) , combination Emax: 0.882

---

Listed here are compounds together with their documented combination Emax.
# Tested on: KYSE-270 (Esophageal Squamous Cell Carcinoma)
# Experimental Protocol: combination Emax (second highest fraction inhibited in the dose matrix, 72 h); higher = more inhibition; extreme values may be limits of the assay
Answer with the value's number alone.

// recorded combination Emax for C=CCn1c(=O)c2cnc(Nc3ccc(N4CCN(C)CC4)cc3)nc2n1-c1cccc(C(C)(C)O)n1 [AZD1775] + Nc1ccn([C@@H]2O[C@H](CO)[C@@H](O)C2(F)F)c(=O)n1 [Gemcitabine] (first compound max 1 µM, partner max 0.3 µM) : 0.983

Further cases:
response.value for Cc1c2c(nn1C)CSCc1cc(n(C)n1)CSc1cc(c3ccccc3c1)OCCCc1c(C(=O)O)n(C)c3c-2c(Cl)ccc13 [AZD5991] + Cc1cc2ncnn2cc1Nc1ncc2c(n1)n(C1CCOCC1)c(=O)n2C [AZD7648] (first compound max 1 µM, 7x7, partner max 10 µM) (field: combination Emax) = 0.508

# combination Emax of Cc1c2c(nn1C)CSCc1cc(n(C)n1)CSc1cc(c3ccccc3c1)OCCCc1c(C(=O)O)n(C)c3c-2c(Cl)ccc13 [AZD5991] + CC1(C)CCC(CN2CCN(c3ccc(C(=O)NS(=O)(=O)c4ccc(NCC5CCOCC5)c([N+](=O)[O-])c4)c(Oc4cnc5[nH]ccc5c4)c3)CC2)=C(c2ccc(Cl)cc2)C1 [Venetoclax] (first compound max 1 µM, 7x7, partner max 1 µM) = 0.822

# compound Cn1cnc2c(F)c(Nc3ccc(Br)cc3Cl)c(C(=O)NOCCO)cc21 [Selumetinib] + C[C@@H]1COCCN1C2=NC(=NC(=C2)C3(CC3)[S@](=N)(=O)C)C4=C5C=CNC5=NC=C4 [AZD6738] (first compound max 10 µM, 7x7, partner max 10 µM) ; its combination Emax = 0.524

---

# Test system: KP-3 (Pancreatic Carcinoma)
# Experimental Protocol: Bliss excess, mean over the matrix (fraction); higher = more synergy
Binary classification by Bliss excess, with -0.04 as an inclusive lower bound for rule met; all other cases are rule not met.

Before answering, review these 5 worked examples.
Would you say CCc1c2c(nc3ccc(O)cc13)-c1cc3c(c(=O)n1C2)COC(=O)[C@]3(O)CC [SN-38] + CN(C)CCCOc1ccc(-c2ccc3ncc4c(c3c2)n(C2CCOCC2)c(=O)n4C)cn1 [AZD0156] (first compound max 0.3 µM, 7x7, partner max 1 µM) shows Bliss excess at minimum -0.04?
rule met

Check this compound for Bliss excess at or above -0.04: C[C@@H](Nc1cc(F)cc(F)c1)c1cc(C(=O)N(C)C)cc2c(=O)cc(N3CCOCC3)oc12 [AZD8186] + C1CN(CCC1(C(=O)N[C@@H](CCO)C2=CC=C(C=C2)Cl)N)C3=NC=NC4=C3C=CN4 [AZD5363] (first compound max 10 µM, 7x7, partner max 10 µM)
rule met

Check the entry CS(=O)(=O)CCNCc1ccc(-c2ccc3ncnc(Nc4ccc(OCc5cccc(F)c5)c(Cl)c4)c3c2)o1 [Lapatinib] + NC1(c2ccc(-c3nc4ccn5c(=O)[nH]nc5c4cc3-c3ccccc3)cc2)CCC1 [MK-2206] (first compound max 10 µM, 7x7, partner max 10 µM) : does Bliss excess equal or exceed -0.04?
rule met

# check: Bliss excess of Cc1c2c(nn1C)CSCc1cc(n(C)n1)CSc1cc(c3ccccc3c1)OCCCc1c(C(=O)O)n(C)c3c-2c(Cl)ccc13 [AZD5991] + CC1(C)CCC(CN2CCN(c3ccc(C(=O)NS(=O)(=O)c4ccc(NCC5CCOCC5)c([N+](=O)[O-])c4)c(Oc4cnc5[nH]ccc5c4)c3)CC2)=C(c2ccc(Cl)cc2)C1 [Venetoclax] (first compound max 1 µM, 7x7, partner max 1 µM) is greater than or equal to -0.04
rule not met

Kindly determine if Bliss excess recorded for C[C@@H](Oc1cc(-c2cnn(C3CCNCC3)c2)cnc1N)c1c(Cl)ccc(F)c1Cl [Crizotinib] + CC1=C(C(=CC=C1)Cl)NC(=O)C2=CN=C(S2)NC3=CC(=NC(=N3)C)N4CCN(CC4)CCO [Dasatinib] (first compound max 10 µM, 7x7, partner max 2 µM) is above or exactly -0.04.
rule not met

Next:
Textbook exercise: given the entry Cc1cc2ncnn2cc1Nc1ncc2c(n1)n(C1CCOCC1)c(=O)n2C [AZD7648] + COc1cc([C@@H]2c3cc4c(cc3[C@@H](O[C@@H]3O[C@@H]5CO[C@@H](C)O[C@H]5[C@H](O)[C@H]3O)[C@H]3COC(=O)[C@H]23)OCO4)cc(OC)c1O [Etoposide] (first compound max 10 µM, 7x7, partner max 10 µM) , state whether its Bliss excess is greater than or equal to -0.04.
rule met

Test whether the compound C=CCn1c(=O)c2cnc(Nc3ccc(N4CCN(C)CC4)cc3)nc2n1-c1cccc(C(C)(C)O)n1 [AZD1775] + CCc1c2c(nc3ccc(O)cc13)-c1cc3c(c(=O)n1C2)COC(=O)[C@]3(O)CC [SN-38] (first compound max 1 µM, partner max 0.3 µM) records Bliss excess of -0.04 or higher.
rule not met

Identify whether the reported Bliss excess of the following compound is -0.04 or greater: COc1nnc2ccc(N3CCC(c4ccc(OCCN5CCN(C)C(=O)[C@H]5C)cc4)CC3)nn12 [AZD5153] + Cn1cnc2c(F)c(Nc3ccc(Br)cc3Cl)c(C(=O)NOCCO)cc21 [Selumetinib] (first compound max 1 µM, 7x7, partner max 10 µM)
rule met

# bool: Bliss excess of CC(=O)Nc1cccc(-n2c(=O)n(C3CC3)c(=O)c3c(Nc4ccc(I)cc4F)n(C)c(=O)c(C)c32)c1 [Trametinib] + Cc1nc(-c2cn3c(n2)-c2ccc(-c4cnn(C(C)(C)C(N)=O)c4)cc2OCC3)n(C(C)C)n1 [Taselisib] (first compound max 1 µM, 7x7, partner max 10 µM) >= -0.04
rule met

---

# System: MN-60 (B-Lymphoblastic Leukemia)
# Experimental Protocol: Bliss excess, mean over the matrix (fraction); higher = more synergy
Bliss excess listing for selected compounds.
No unit in the answer, only the number.

Reported Bliss excess of CN(CCO)CC[C@H](CSc1ccccc1)Nc1ccc(S(=O)(=O)NC(=O)c2ccc(N3CCC([C@@H](O)c4ccccc4-c4ccc(Cl)cc4)CC3)cc2)cc1S(=O)(=O)C(F)(F)F [AZD4320] + Cc1cc2ncnn2cc1Nc1ncc2c(n1)n(C1CCOCC1)c(=O)n2C [AZD7648] (first compound max 1 µM, 7x7, partner max 10 µM) : -0.0177

So for COc1nnc2ccc(N3CCC(c4ccc(OCCN5CCN(C)C(=O)[C@H]5C)cc4)CC3)nn12 [AZD5153] + CC1(C)CCC(CN2CCN(c3ccc(C(=O)NS(=O)(=O)c4ccc(NCC5CCOCC5)c([N+](=O)[O-])c4)c(Oc4cnc5[nH]ccc5c4)c3)CC2)=C(c2ccc(Cl)cc2)C1 [Venetoclax] (first compound max 1 µM, 7x7, partner max 1 µM) , the logged Bliss excess turned out to be -0.0708

Bliss excess reported for this compound Cc1cc2ncnn2cc1Nc1ncc2c(n1)n(C1CCOCC1)c(=O)n2C [AZD7648] + C=CCn1c(=O)c2cnc(Nc3ccc(N4CCN(C)CC4)cc3)nc2n1-c1cccc(C(C)(C)O)n1 [AZD1775] (first compound max 10 µM, partner max 1 µM) : -0.0316

Others:
Quick note, Bliss excess for COc1cccc(OCCCN)c1-c1cc(Nc2cnc(C#N)cn2)n[nH]1 [Prexasertib] + CCc1c2c(nc3ccc(O)cc13)-c1cc3c(c(=O)n1C2)COC(=O)[C@]3(O)CC [SN-38] (first compound max 1 µM, 7x7, partner max 0.3 µM) landed at -0.0452

Query CC(=O)c1c(C)c2cnc(Nc3ccc(N4CCNCC4)cn3)nc2n(C2CCCC2)c1=O [Palbociclib] + Cc1c2c(nn1C)CSCc1cc(n(C)n1)CSc1cc(c3ccccc3c1)OCCCc1c(C(=O)O)n(C)c3c-2c(Cl)ccc13 [AZD5991] (first compound max 10 µM, 7x7, partner max 1 µM) yields Bliss excess of -0.0363

Looking up Cn1cnc2c(F)c(Nc3ccc(Br)cc3Cl)c(C(=O)NOCCO)cc21 [Selumetinib] + CCN(CCO)CCCOc1ccc2c(Nc3cc(CC(=O)Nc4cccc(F)c4)[nH]n3)ncnc2c1 [AZD2811] (first compound max 10 µM, 7x7, partner max 1 µM) , I see its Bliss excess listed as -0.0202

Per the record, CN(CCO)CC[C@H](CSc1ccccc1)Nc1ccc(S(=O)(=O)NC(=O)c2ccc(N3CCC([C@@H](O)c4ccccc4-c4ccc(Cl)cc4)CC3)cc2)cc1S(=O)(=O)C(F)(F)F [AZD4320] + Cn1cnc2c(F)c(Nc3ccc(Br)cc3Cl)c(C(=O)NOCCO)cc21 [Selumetinib] (first compound max 1 µM, 7x7, partner max 3 µM) has Bliss excess of 0.0026
